- ASSAY_TARGET: T1, human TREM2 (human, UniProt Q9NZC2 19-174, limits assumed)
- T1 construct: also called triggering receptor expressed on myeloid cells 2
- T1 sequence: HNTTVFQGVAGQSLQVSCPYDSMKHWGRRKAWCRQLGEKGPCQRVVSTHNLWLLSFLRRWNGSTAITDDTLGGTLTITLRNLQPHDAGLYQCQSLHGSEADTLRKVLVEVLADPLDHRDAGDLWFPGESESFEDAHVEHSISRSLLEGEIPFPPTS
- ASSAY_REMARKS: 1st screen, 110 nM Ab
OBSERVATION_TYPE: Binding Signal

>  <BINDER>
V32 (antibody, V domains shown, also called 6E7 variant V32) VH: EVQLVQSGAEVKKPGESLKISCKGSGYSFTSYWIAWVRQMPGKGLEWMGIIYPGDSDTRYSNSFQGQVTISADKSISTAYLQWSSLKASDTAMYFCARQRTFYYDSSDYFDYWGQGTLVTVSS VL: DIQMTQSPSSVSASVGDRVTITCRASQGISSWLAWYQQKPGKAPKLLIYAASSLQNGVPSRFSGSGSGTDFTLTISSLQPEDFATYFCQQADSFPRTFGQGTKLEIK

>  <OBSERVATION_TYPE>
Binding Signal

>  <READOUT_VALUE>
0.82 fold over 6E7 parental antibody

$$$$
>  <BINDER>
V69 (antibody, V domains shown, also called 6E7 variant V69) VH: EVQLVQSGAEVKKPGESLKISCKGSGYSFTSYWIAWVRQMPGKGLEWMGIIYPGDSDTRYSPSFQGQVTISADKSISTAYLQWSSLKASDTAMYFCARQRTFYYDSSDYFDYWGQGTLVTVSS VL: DIQMTQSPSSVSASVGDRVTITCRASQGISSYLAWYQQKPGKAPKLLIYAASSLQNGVPSRFSGSGSGTDFTLTISSLQPEDFATYFCQQADSFPRTFGQGTKLEIK

>  <OBSERVATION_TYPE>
Binding Signal

>  <READOUT_VALUE>
0.41 fold over 6E7 parental antibody

$$$$
>  <BINDER>
V94 (antibody, V domains shown, also called 6E7 variant V94) VH: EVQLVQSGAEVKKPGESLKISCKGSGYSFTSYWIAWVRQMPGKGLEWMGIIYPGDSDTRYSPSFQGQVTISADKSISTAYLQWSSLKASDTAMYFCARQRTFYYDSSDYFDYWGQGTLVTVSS VL: DIQMTQSPSSVSASVGDRVTITCRASQGISSWLAWYQQKPGKAPKLLIYAAASLQNGVPSRFSGSGSGTDFTLTISSLQPEDFATYFCQQADSFPRTFGQGTKLEIK

>  <OBSERVATION_TYPE>
Binding Signal

>  <READOUT_VALUE>
0.31 fold over 6E7 parental antibody

$$$$
>  <BINDER>
V21 (antibody, V domains shown, also called 6E7 variant V21) VH: EVQLVQSGAEVKKPGESLKISCKGSGYSFTSYWIAWVRQMPGKGLEWMGIIYPGDSDTRYSPSFQGQVTISADKSISTAYLQWSSLKASDTAMYFCARQRTFYYDSSDFFDYWGQGTLVTVSS VL: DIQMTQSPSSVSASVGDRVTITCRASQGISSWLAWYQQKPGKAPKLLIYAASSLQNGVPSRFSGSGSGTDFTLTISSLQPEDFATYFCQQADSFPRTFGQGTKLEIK

>  <OBSERVATION_TYPE>
Binding Signal

>  <READOUT_VALUE>
0.76 fold over 6E7 parental antibody

$$$$

Alright, here's another binder for you.
The value of Binding Signal measured for the binder V20 (antibody, V domains shown, also called 6E7 variant V20) VH: EVQLVQSGAEVKKPGESLKISCKGSGYSFTSYWIAWVRQMPGKGLEWMGRIYPGDSDTRYSPSFQGQVTISADKSISTAYLQWSSLKASDTAMYFCARQRTFYYDSSDYFDYWGQGTLVTVSS VL: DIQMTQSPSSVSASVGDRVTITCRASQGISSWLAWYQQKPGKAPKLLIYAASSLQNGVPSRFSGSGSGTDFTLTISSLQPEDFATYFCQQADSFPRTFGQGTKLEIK turned out to be 0.18 fold over 6E7 parental antibody

These entries and their values trace back to patent US20250326839A1.
